# method-description: clinical
# assay-conditions: both, human, in vivo, po, 50 mg, CMAX
parameter: Cmax (ng/mL)
Your answer is read as ng/mL, so omit the unit and give the number.

q: What value of measured Cmax is listed for COc1cc2c(cc1OC)[C@H]1C[C@@H](OC(=O)[C@@H](N)C(C)(C)O)[C@H](CC(C)C)CN1CC2 [NBI-136110] ?
a: 32.5

---

# method-description: clinical
# assay-conditions: both, human, in vivo, po, 50 mg, AUC0-TLAST
parameter: AUC(0-t) (ng·h/mL)
Your answer is read as ng·h/mL, so omit the unit and give the number.

q: What value of measured AUC(0-t) is listed for COc1cc2c(cc1OC)[C@H]1C[C@@H](OC(=O)[C@@H](N)C(C)(C)O)[C@H](CC(C)C)CN1CC2 [NBI-136110] ?
a: 928

---

# maps each entry to its Tmax
# method-description: clinical
# assay-conditions: both, human, in vivo, po, 50 mg, TMAX
Your answer is read as h, so omit the unit and give the number.

smiles	numeric-result
COc1cc2c(cc1OC)[C@H]1C[C@@H](OC(=O)[C@@H](N)C(C)(C)O)[C@H](CC(C)C)CN1CC2	4

Alright, here's another compound for you.
q: What value of measured Tmax is listed for COc1cc2c(cc1OC)[C@H]1C[C@@H](OC(=O)[C@@H](N)C(C)C)[C@H](CC(C)C)CN1CC2 ?
a: 1.1

---

# method-description: clinical
# assay-conditions: both, human, in vivo, mean t1/2
# maps each entry to its half-life

smiles	parameter	result
COc1cc2c(cc1OC)[C@H]1C[C@@H](OC(=O)[C@@H](N)C(C)C)[C@H](CC(C)C)CN1CC2	half-life	21 to 22 h

q: What value of measured half-life is listed for COc1cc2c(cc1OC)[C@H]1C[C@@H](OC(=O)[C@@H](N)C(C)(C)O)[C@H](CC(C)C)CN1CC2 ?
a: 33 to 36 h

---

# method-description: clinical
# assay-conditions: both, human, in vivo, po, 50 mg, AUC0-∞
parameter: AUC(0-inf) (ng·h/mL)
Your answer is read as ng·h/mL, so omit the unit and give the number.

q: What value of measured AUC(0-inf) is listed for COc1cc2c(cc1OC)[C@H]1C[C@@H](OC(=O)[C@@H](N)C(C)(C)O)[C@H](CC(C)C)CN1CC2 ?
a: 1030

---

# method-description: clinical
# assay-conditions: both, human, in vivo, po, 50 mg, Vz/F
parameter: Vd/F

q: What value of measured Vd/F is listed for COc1cc2c(cc1OC)[C@H]1C[C@@H](OC(=O)[C@@H](N)C(C)C)[C@H](CC(C)C)CN1CC2 [NBI-98854] ?
a: 600 L

---

# method-description: clinical
# assay-conditions: both, human, in vivo, po, 50 mg, MRT
# maps each entry to its MRT
Your answer is read as h, so omit the unit and give the number.

Examples with answers:
smiles	endpoint-unit	MRT
COc1cc2c(cc1OC)[C@H]1C[C@@H](OC(=O)[C@@H](N)C(C)C)[C@H](CC(C)C)CN1CC2	h	24
COc1cc2c(cc1OC)[C@H]1C[C@@H](O)[C@H](CC(C)C)CN1CC2	h	36

Alright, here's another compound for you.
q: What value of measured MRT is listed for COc1cc2c(cc1OC)[C@H]1C[C@@H](OC(=O)[C@@H](N)C(C)(C)O)[C@H](CC(C)C)CN1CC2 ?
a: 53
